Assay: NCI Yeast Anticancer Drug Screen. Data for the wt2 strain (AID 169);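 also: 0% = growth of vehicle-treated yeast cultures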
Conditions: S. cerevisiae wt2 strain growth inhibition; at 100.0 µM
Method: Growth inhibition of yeast strains with defined genetic alterations is measured as a screen for potential anti-cancer activity. Selected strains with alterations in DNA damage repair or cell cycle control were exposed to compounds and growth inhibition was measured relative to vehicle treated controls. The strain used in this assay is wt2
About 79,000 compounds went through this panel and 15% of them were active in at least one assay; those are over-represented in the sample as a whole. Activity calls are given as the source filed them. Rule as the data show it: active = growth inhibition above about 70%; inactive = the rest.
Labels: True for active, False for inactive

* COc1cc(NCc2ccc3nc(N)nc(N)c3c2C)cc(OC)c1OC | False
* C/C(=N\NC(=S)NC1CCCC1)c1ccccn1 | True
* NP1(Oc2ccc(F)cc2)=NP(N)(Oc2ccc(F)cc2)=NP(Oc2ccc(F)cc2)(Oc2ccc(F)cc2)=N1 (stereo not given) | False
* CNc1nc(C)nc2c1cnn2-c1ccc([N+](=O)[O-])cc1 | False
* CN(CC(=O)O)c1ccc(/C=C/c2ccnc3ccccc23)cc1 | False
* Nc1nc2c(c(=O)[nH]1)NC(CCNc1ccc(C(=O)O)cc1)CN2 (stereo not given) | False
* CN(C)CC1CCCc2ccccc2C1=O (stereo not given) | True
* S=c1cn[nH]c2ccc(Br)cc12 | False
* CC(C)c1cccc(O)c(=O)c1 | True
* O/N=C/C1c2ccccc2-c2ccccc21 | True
* Cc1ccc(CNc2ccc(Br)cc2)cc1 | True
* COc1ccc(S(=O)(=O)N/N=C\c2cc([N+](=O)[O-])cc(I)c2O)c(OC)c1OC | True
* Nc1nc(N)c2cc(Sc3ccc4ccccc4c3)ccc2n1 | True
* Cc1nc2c(ncn2CCO)c(=O)[nH]1 | False
* COc1ccc(N2C(=O)CC(Cl)C2=O)cc1 (stereo not given) | True
* O=C1c2c(O)cccc2-c2nn(CCNCCO)c3ccc(NCCNCCO)c1c23 | False
* O=C(NC(=S)Nc1ccccn1)c1ccccc1 | False
* CC(=O)N1C(=O)/C(=C\C(=O)c2ccc([N+](=O)[O-])cc2)c2ccccc21 | True
* O=NN(CCCl)C(=O)NCCCl | False
* Cn1c2nc3ccccc3c-2nc2ccccc21 | True
* O=S1(=O)c2ccccc2N=C(c2ccccc2Cl)CC1c1ccc(F)cc1 (stereo not given) | False
* O=C(O)c1[nH]c(=O)c2ccccc2c1Nc1ccccc1 | False
* COC(=O)c1n[nH]c(C)c1N=NN(C)CCC#N | True
* CCC(NC(C)c1ccccc1)C(=O)c1ccc(OCc2ccccc2)c(OCc2ccccc2)c1 (stereo not given) | False
* CC(=O)N1C(=O)/C(=C\C(=O)c2ccc(Cl)cc2)c2ccccc21 | True

###

Test: NCI Yeast Anticancer Drug Screen. Data for the rad14 strain (AID 159);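 also: 0% = growth of vehicle-treated control cultures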
Settings: S. cerevisiae rad14 strain growth inhibition; at 33.0 µM; stronger effect = higher value
About 79,000 compounds went through this panel and 15% of them were active in at least one assay; those are over-represented in the sample as a whole. The source made the active and inactive calls. Cut-off read from the data, not from the text of the source: active = growth inhibition above about 70%; inactive = the rest.
RESULT TYPE: growth inhibition

- CCC(=O)Oc1ccc(/C=N/NC(N)=S)nc1: 10% (inactive)
- Nc1nc(N)c2c(n1)CCC(S(=O)(=O)c1ccc3ccccc3c1)C2 (configuration not stated): -8% (inactive)
- Cc1cccc(/C=N\NC(=S)N2CCCCC2)n1: 98% (active)
- OCCN(CCO)c1ccc2c(c1)Cc1ccccc1-2: 15% (inactive)
- COC(=O)c1n[nH]c(C)c1N=NN(C)CCC#N: 99% (active)
- Cc1ccc(Nc2c3c(c(C#N)c4nc5ccccc5n24)CCCC3)cc1: 25% (inactive)
- O=c1[nH]c2ccccc2c2nc3ccccc3n12: 7% (inactive)
- CC1C(C#N)(C#N)C(C#N)=C(N)C1(Cl)[N+](=O)[O-] (configuration not stated): 28% (inactive)
- CN(CC(=O)O)c1ccc(/C=C/c2ccnc3ccccc23)cc1: 6% (inactive)
- BrCc1ccccc1C(c1ccccc1)c1ccccc1: 97% (active)
- C=C(CCCO)[C@@H]1CC[C@@](C)(O)[C@H]1C: -35% (inactive)
- O=C1C=CC(=O)N1c1ccc2c(c1)OCO2: 100% (active)

###

Experiment: NCI Yeast Anticancer Drug Screen. Data for the wt2 strain (AID 169);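 also: 0% = growth of vehicle-treated yeast cultures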
Settings: S. cerevisiae wt2 strain growth inhibition; at 3.7 µM; stronger effect = higher value
About 79,000 compounds went through this panel and 15% of them were active in at least one assay; those are over-represented in the sample as a whole.
Each item that follows carries a reported growth inhibition.
RESULT TYPE: growth inhibition (%)

* COc1ccc(N=Nc2ccc3oc(=O)c(C(=O)Nc4ccccc4)cc3c2)cc1 | 14
* O=C1CSC(=S)N1Cc1ccc(Cl)cc1Cl | 55
* CCCCC(=O)c1c(O)nc2sccn2c1=O | 19
* O=Nc1ccc(Nc2ccccc2)cc1 | -47
* COc1cc2c(cc1C[N+](C)(C)CSc1ccccc1)-c1ccccc1CC2 | 21
* CC(=O)Oc1ccc(N2C(=O)C3c4[nH]c5ccccc5c4C4CCC(C(C)(C)C)CC4C3C2=O)cc1 (configuration not stated) | 25
* Cc1ccc(Nc2n[nH]c(=S)s2)cc1 | -6
* O=C(Nc1ccc2c(c1)Cc1c-2ccc([N+](=O)[O-])c1F)C(F)(F)F | 0
* O=NN(CCCl)C(=O)NC1CCCCC1 | -2
* CC1(C)C(C=O)=CCC1CC(N)=O (configuration not stated) | 1
* CC(=O)Oc1ccc(C(=O)c2ccccc2)c(O)c1 | 7
* Nc1ccc(S(=O)(=O)Nc2ccc(Nc3c4ccccc4nc4ccccc34)cc2)cc1 | -39

###

Test: NCI Yeast Anticancer Drug Screen. Data for the rad50EPP+ strain (AID 151);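 also: 0% = growth of vehicle-treated control cultures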
Settings: S. cerevisiae rad50 mutant strain, at 11.0 µM, stronger effect = higher value
This is part of a sample that, as a whole, favours compounds with a hit. Of some 79,000 tested, about 15% had one in any assay.
Decision: growth inhibition compared against 10%; not below it gives Satisfied, below it gives Not satisfied.

- N#Cc1sc2c(c1OC(=O)c1ccco1)c(=O)n(-c1ccccc1)c(=S)n2-c1ccccc1: Satisfied
- CN(CC(=O)O)c1ccc(/C=C/c2ccnc3ccccc23)cc1: Not satisfied
- CC1(C)C(C=O)=CCC1CC(N)=O (stereo not given): Not satisfied
- NP1(Oc2ccc(F)cc2)=NP(N)(Oc2ccc(F)cc2)=NP(Oc2ccc(F)cc2)(Oc2ccc(F)cc2)=N1 (stereo not given): Not satisfied
- O=C(O)c1ccccc1.[Ag]: Satisfied
- O=C1c2ccccc2CCC1(Br)Br: Satisfied
- CC(=O)c1cc2c(Cl)cc(Cl)cc2oc1=O: Not satisfied
- CC(=O)C1=C(O)C2(C)c3c(O)c(C)c(O)c(C(C)=O)c3OC2(Sc2ccccc2)CC1=O (stereo not given): Satisfied
- S=C1SCN(CCc2ccccc2)CN1CCc1ccccc1: Satisfied
- CN(N=O)C(=O)N[C@@H](C=O)[C@@H](O)[C@H](O)[C@H](O)CO: Not satisfied
- C=Cc1cnc([N+](=O)[O-])n1C: Satisfied
- COc1ccc(S(=O)(=O)N/N=C\c2cc([N+](=O)[O-])cc(I)c2O)c(OC)c1OC: Not satisfied
- COc1cc(CNc2ccc(C(C)C)cc2)cc(OC)c1OC: Not satisfied
- Nc1cc(S(N)(=O)=O)ccc1SSc1ccc(S(N)(=O)=O)cc1N: Satisfied
- S=c1cn[nH]c2ccc(Br)cc12: Satisfied
- CC(=O)C1=C(C)O/C(=C/c2cccc(Cl)c2)C1=O: Satisfied
- CCCCCCCCCCCc1nc(N)n[nH]1: Satisfied
- COC(=O)c1n[nH]c(C)c1N=NN(C)CCC#N: Satisfied
- CC(C)(C)c1ccc(O)c(C(c2ccc([N+](=O)[O-])cc2)c2cc(C(C)(C)C)ccc2O)c1: Not satisfied
- Cc1cc(O)c2c(c1)C(=O)C=C(Br)C2=O: Satisfied
- Cc1ccc(Nc2n[nH]c(=S)s2)cc1: Not satisfied
- COc1ccc(N)c2c1C(=O)c1ccccc1C2=O: Satisfied

###

Assay: NCI Yeast Anticancer Drug Screen. Data for the bub3 strain (AID 167)
Details: S. cerevisiae bub3 mutant strain, at 50.0 µM (retest, dose inferred, filed as 5.0)
The panel holds about 79,000 compounds, 15% with a hit somewhere; the sample as a whole holds those more often. Active and inactive are the calls of the source. No stated cut-off is given here; in the data, active means growth inhibition above about 70%; inactive means the rest.
Labels: TRUE = active, FALSE = inactive

- S=c1nc(Cl)cc2[nH]c(Cl)cn12: FALSE
- Nc1nc(N)c2c(n1)CCC(S(=O)(=O)c1ccc3ccccc3c1)C2 (stereo unspecified): FALSE
- O=c1[nH]cc(/C=N\Nc2ccccc2)c(=O)[nH]1: FALSE
- O=C1C=CC(=O)N1c1ccc(I)cc1: TRUE
- Oc1ccc(Br)cc1C=NC1CCCCC1: TRUE
- CCN(CC)N=Nc1c(C(N)=O)n[nH]c1C: FALSE
- CC(=O)OCC1OC(O[C@H]2C=C[C@@H](C(=O)OCc3ccccc3)n3c(=O)n(-c4ccccc4)c(=O)n32)C(OC(C)=O)C(OC(C)=O)C1OC(C)=O (stereo partly specified): TRUE
- Cc1ccc(S(=O)(=O)Nc2ccc3c(c2)C(O)c2ccccc2-3)cc1 (stereo unspecified): FALSE
- NC(=O)N1c2ccccc2C=Cc2ccccc21: FALSE
- CC1CCC2(C(=O)O)CCC3(C)C(=CCC4C5(C)CC(O)C(O)C(C)(CO)C5C(O)CC43C)C2C1C (stereo unspecified): TRUE
- COc1ccc2oc(-c3ccc(Cl)cc3)c(N3CCN(C)CC3)c2c1: TRUE
